target-or-test-system: T1, human kallikrein 14 (hK14) (human, UniProt Q9P0G3 25-251, limits assumed)
T1 construct: range counted on GenBank AAK48524 (printed), which may differ from the UniProt numbering; also called recombinant hK14
T1 sequence (looked up): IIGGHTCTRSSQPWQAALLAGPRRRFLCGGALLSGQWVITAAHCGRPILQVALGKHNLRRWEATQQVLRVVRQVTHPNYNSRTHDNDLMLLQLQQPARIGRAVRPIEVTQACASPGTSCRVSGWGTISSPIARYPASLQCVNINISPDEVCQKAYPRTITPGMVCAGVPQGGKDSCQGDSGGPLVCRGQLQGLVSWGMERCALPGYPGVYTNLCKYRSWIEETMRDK
assay-info: residual hK14 activity against [I0]/[E0]
assay-endpoint: SI (stoichiometry of inhibition)

# binder, assay-endpoint, observed
records = [
    ("AATG1g (other, human, mature) HHHHHHEDPQGDAAQKTDTSHHDQDHPTFNKITPNLAEFAFSLYRQLAHQSNSTNIFFSPVSIATAFAMLSLGTKADTHDEILEGLNFNLTEIPEAQIHEGFQELLRTLNQPDSQLQLTTGNGLFLSEGLKLVDKFLEDVKKLYHSEAFTVNFGDTEEAKKQINDYVEKGTQGKIVDLVKELDRDTVFALVNYIFFKGKWERPFEVKDTEEEDFHVDQVTTVKVPMMKRLGMFNIQHCKKLSSWVLLMKYLGNATAIFFLPDEGKLQHLENELTHDIITKFLENEDRRSASLHLPKLSITGTYDLKSVLGQLGITKVFSNGADLSGVTEEAPLKLSKAVHKAVLTIDEKGTEAAGAMFLEGSLRGIPPEVKFNKPFVFLMIEQNTKSPLFMGKVVNPTQK", "SI (stoichiometry of inhibition)", 2.3),
    ("AATC11 (other, human, mature) HHHHHHEDPQGDAAQKTDTSHHDQDHPTFNKITPNLAEFAFSLYRQLAHQSNSTNIFFSPVSIATAFAMLSLGTKADTHDEILEGLNFNLTEIPEAQIHEGFQELLRTLNQPDSQLQLTTGNGLFLSEGLKLVDKFLEDVKKLYHSEAFTVNFGDTEEAKKQINDYVEKGTQGKIVDLVKELDRDTVFALVNYIFFKGKWERPFEVKDTEEEDFHVDQVTTVKVPMMKRLGMFNIQHCKKLSSWVLLMKYLGNATAIFFLPDEGKLQHLENELTHDIITKFLENEDRRSASLHLPKLSITGTYDLKSVLGQLGITKVFSNGADLSGVTEEAPLKLSKAVHKAVLTIDEKGTEAAGAMFLEAIPRQTNPEVKFNKPFVFLMIEQNTKSPLFMGKVVNPTQK", "SI (stoichiometry of inhibition)", 2.8),
    ("AATG1 (other, human, mature) HHHHHHEDPQGDAAQKTDTSHHDQDHPTFNKITPNLAEFAFSLYRQLAHQSNSTNIFFSPVSIATAFAMLSLGTKADTHDEILEGLNFNLTEIPEAQIHEGFQELLRTLNQPDSQLQLTTGNGLFLSEGLKLVDKFLEDVKKLYHSEAFTVNFGDTEEAKKQINDYVEKGTQGKIVDLVKELDRDTVFALVNYIFFKGKWERPFEVKDTEEEDFHVDQVTTVKVPMMKRLGMFNIQHCKKLSSWVLLMKYLGNATAIFFLPDEGKLQHLENELTHDIITKFLENEDRRSASLHLPKLSITGTYDLKSVLGQLGITKVFSNGADLSGVTEEAPLKLSKAVHKAVLTIDEKGTEAAGAMFLEGSLRSIPPEVKFNKPFVFLMIEQNTKSPLFMGKVVNPTQK", "SI (stoichiometry of inhibition)", 3.6),
    ("AATE5 (other, human, mature) HHHHHHEDPQGDAAQKTDTSHHDQDHPTFNKITPNLAEFAFSLYRQLAHQSNSTNIFFSPVSIATAFAMLSLGTKADTHDEILEGLNFNLTEIPEAQIHEGFQELLRTLNQPDSQLQLTTGNGLFLSEGLKLVDKFLEDVKKLYHSEAFTVNFGDTEEAKKQINDYVEKGTQGKIVDLVKELDRDTVFALVNYIFFKGKWERPFEVKDTEEEDFHVDQVTTVKVPMMKRLGMFNIQHCKKLSSWVLLMKYLGNATAIFFLPDEGKLQHLENELTHDIITKFLENEDRRSASLHLPKLSITGTYDLKSVLGQLGITKVFSNGADLSGVTEEAPLKLSKAVHKAVLTIDEKGTEAAGAMFLEANQRSSPPEVKFNKPFVFLMIEQNTKSPLFMGKVVNPTQK", "SI (stoichiometry of inhibition)", 10),
    ("AATE8 (other, human, mature; also called rAATE8) HHHHHHEDPQGDAAQKTDTSHHDQDHPTFNKITPNLAEFAFSLYRQLAHQSNSTNIFFSPVSIATAFAMLSLGTKADTHDEILEGLNFNLTEIPEAQIHEGFQELLRTLNQPDSQLQLTTGNGLFLSEGLKLVDKFLEDVKKLYHSEAFTVNFGDTEEAKKQINDYVEKGTQGKIVDLVKELDRDTVFALVNYIFFKGKWERPFEVKDTEEEDFHVDQVTTVKVPMMKRLGMFNIQHCKKLSSWVLLMKYLGNATAIFFLPDEGKLQHLENELTHDIITKFLENEDRRSASLHLPKLSITGTYDLKSVLGQLGITKVFSNGADLSGVTEEAPLKLSKAVHKAVLTIDEKGTEAAGAMFLEALQRAIPPEVKFNKPFVFLMIEQNTKSPLFMGKVVNPTQK", "SI (stoichiometry of inhibition)", 7.4),
    ("AATG9 (other, human, mature; also called rAATG9) HHHHHHEDPQGDAAQKTDTSHHDQDHPTFNKITPNLAEFAFSLYRQLAHQSNSTNIFFSPVSIATAFAMLSLGTKADTHDEILEGLNFNLTEIPEAQIHEGFQELLRTLNQPDSQLQLTTGNGLFLSEGLKLVDKFLEDVKKLYHSEAFTVNFGDTEEAKKQINDYVEKGTQGKIVDLVKELDRDTVFALVNYIFFKGKWERPFEVKDTEEEDFHVDQVTTVKVPMMKRLGMFNIQHCKKLSSWVLLMKYLGNATAIFFLPDEGKLQHLENELTHDIITKFLENEDRRSASLHLPKLSITGTYDLKSVLGQLGITKVFSNGADLSGVTEEAPLKLSKAVHKAVLTIDEKGTEAAGAMFLETVDYAIPPEVKFNKPFVFLMIEQNTKSPLFMGKVVNPTQK", "SI (stoichiometry of inhibition)", 1.2),
    ("AATF3 (other, human, mature) HHHHHHEDPQGDAAQKTDTSHHDQDHPTFNKITPNLAEFAFSLYRQLAHQSNSTNIFFSPVSIATAFAMLSLGTKADTHDEILEGLNFNLTEIPEAQIHEGFQELLRTLNQPDSQLQLTTGNGLFLSEGLKLVDKFLEDVKKLYHSEAFTVNFGDTEEAKKQINDYVEKGTQGKIVDLVKELDRDTVFALVNYIFFKGKWERPFEVKDTEEEDFHVDQVTTVKVPMMKRLGMFNIQHCKKLSSWVLLMKYLGNATAIFFLPDEGKLQHLENELTHDIITKFLENEDRRSASLHLPKLSITGTYDLKSVLGQLGITKVFSNGADLSGVTEEAPLKLSKAVHKAVLTIDEKGTEAAGAMFLEAPDRHMPPEVKFNKPFVFLMIEQNTKSPLFMGKVVNPTQK", "SI (stoichiometry of inhibition)", 11.7),
]
